System: U251 CNS
Assay: NCI-60 one-dose screen, 48 h
Settings: 10 µM unless noted
Experimental: Growth inhibition of the U251 human tumor cell line is measured as a screen for anti-cancer activity. Cells are grown in 96 well plates and exposed to the test compound for 48 hours. Compounds are tested at a single concentration, which is 10^-5 M for most compounds. The reported endpoint is percent growth (GI% or GIPRCNT), where numbers from 0 - 100% represent growth inhibition, and numbers from -100% - 0 represent cell death. For example, a value of 40 represents 60% growth inhibition. […]
The panel holds about 83,000 compounds, 20% with a hit somewhere; the sample as a whole holds those more often. Active and inactive are the calls of the source. The calls were made as follows: active = growth percent below 10; inactive = the rest.
Field 'call' accepts active, inactive

Tell me the assay call for O=C(O)COc1ccc([N+](=O)[O-])cc1Cl please. inactive

Tell me the assay call for COc1cc2cc3cc4cc(OC)c(OC)cc4c(C)[n+]3cc2cc1OC (tested in a mixture with another compound) please. inactive

----------
The entries below are paired with their reported growth.
System: SNB-75 CNS
Test: NCI-60 one-dose screen, 48 h (100 = growth as untreated, 0 = no growth, -100 = all killed)
Conditions: 10 µM unless noted
Compounds without any hit were thinned out: in the full panel of roughly 83,000, 20% have a hit.
Give your result in % as a bare value.

Some compounds with known growth results, for comparison:
>  <Compound>
O=C1CCNC1

>  <Measurement Unit>
%

>  <Quantitative Readout>
100

$$$$
>  <Compound>
CC1(C)N=C(N)N=C(N)N1c1cccc(CCCCOc2ccccc2)c1

>  <Measurement Unit>
%

>  <Quantitative Readout>
60.8

$$$$
>  <Compound>
NC(N)=N/N=C/c1cccc(Br)c1

>  <Measurement Unit>
%

>  <Quantitative Readout>
92.3

$$$$
>  <Compound>
COc1ccc(Cn2cc3c(c2-c2ccc(O)cc2)CCc2cnoc2-3)cc1

>  <Measurement Unit>
%

>  <Quantitative Readout>
19.1

$$$$
>  <Compound>
COc1cc(CNC(=O)CCCC/C=C/C(C)C)ccc1OCc1nnc(Nc2ccccc2F)o1

>  <Measurement Unit>
%

>  <Quantitative Readout>
57.8

$$$$
>  <Compound>
CC(=O)Nc1nc(C)c(C(=O)N/N=C/N2CCOCC2)s1

>  <Measurement Unit>
%

>  <Quantitative Readout>
101

$$$$
>  <Compound>
O=CN/N=C/c1ccc(Cl)c([N+](=O)[O-])c1

>  <Measurement Unit>
%

>  <Quantitative Readout>
62.2

$$$$
>  <Compound>
Cn1c2c(cc(S(=O)(=O)c3ccccc3)c1=O)CCc1c-2cnn1-c1ccc(Cl)cc1

>  <Measurement Unit>
%

>  <Quantitative Readout>
-54.3

$$$$

Give the reported growth for this compound. CCOC(=O)c1csc(-c2ccc(COC(=O)c3ccccc3)o2)n1 92

Give the reported growth for this compound. COc1cc(NC(C)CCCN)c2nc(C)ccc2c1OC (stereo unspecified) 98.7

Give the reported growth for this compound. COC1=CC(c2ccc[nH]2)=N/C1=C\c1[nH]c(C)c(C(=O)CCCCC(=O)NC(C)(C)C)c1C 41.5

Give the reported growth for this compound. Cc1ccc(NCc2cn(-c3ccc(C(=O)O)cc3)nc2-c2ccc(C(=O)O)cc2)cc1 96.7

Give the reported growth for this compound. CCCCCCCCCCCCCCCCNC(=S)N/N=C/c1ccc(O)cc1O 113

Give the reported growth for this compound. Cn1c2ccccc2c2ccccc21 85.5

Give the reported growth for this compound. CCOc1ccc(/C=N/NC(=O)c2cccc3ccccc23)cc1OCC 106

Give the reported growth for this compound. COc1cc(/C(=C2/O[C@@H]([C@H]3COC(C)(C)O3)[C@H]3OC(C)(C)O[C@@H]23)c2ccc3c(c2)OCO3)cc(OC)c1OC 51.8

Give the reported growth for this compound. COC(=O)/C(Br)=C/c1c[nH]c2ccc(Br)cc12 90.1

----------
Tested on: M14 melanoma
Assay: NCI-60 one-dose screen, 48 h
Conditions: 10 µM unless noted
The panel holds about 83,000 compounds, 20% with a hit somewhere; the sample as a whole holds those more often. Active and inactive are the calls of the source. Rule for the calls: active = growth percent below 10; inactive = the rest.
Field 'call' accepts y = active, n = inactive

Tell me the assay call for N=C(N)c1ccc(-c2ccc(-c3ccc(Cl)cc3)s2)s1 please. y

Tell me the assay call for NC(=O)c1c(Nc2ccccc2)nn2cc(-c3nc4ccccc4s3)c(N)nc12 please. n

Tell me the assay call for Cc1sc(NC(=O)c2ccc(C(C)(C)C)cc2)c(C(=O)O)c1C please. n

Tell me the assay call for CCCCCCCCC/C(=N\NC(=O)c1ccncc1)c1ccc(O)c(O)c1O please. y

----------
System: T-47D breast
Experiment: NCI-60 one-dose screen, 48 h
Settings: 10 µM unless noted
About 83,000 compounds went through this panel and 20% of them were active in at least one assay; those are over-represented in the sample as a whole. The source made the active and inactive calls. How the source made its calls: active means growth percent below 10; inactive means the rest.
Field 'call' accepts yes for active, no for inactive

Tell me the assay call for O=C1N/C(=N\c2nnc(-c3ccc(O)cc3)s2)S/C1=C\c1ccccc1O please. no

----------
Test system: NCI-H522 lung
Experiment: NCI-60 one-dose screen, 48 h (100 = growth as untreated, 0 = no growth, -100 = all killed)
Details: 10 µM
About 83,000 compounds went through this panel and 20% of them were active in at least one assay; those are over-represented in the sample as a whole.
Value Type: growth (%)
Give your result in % as a bare value.

Some molecules with known growth results, for comparison:
>  <Molecule>
CCCCCN1CCN(C(CC(=O)c2ccccc2)C(=O)c2ccccc2)CC1 (stereo not given)

>  <Measurement Unit>
%

>  <growth>
1.49

$$$$
>  <Molecule>
Nc1cc(N)c2nc(-c3ccccc3)c(NCCc3ccc(Cl)c(Cl)c3)nc2c1

>  <Measurement Unit>
%

>  <growth>
-72.1

$$$$
>  <Molecule>
O=C(/C=C/c1cccc(O)c1)c1cccc(-n2cc(-c3ccc(Cl)cc3)[nH]c2=O)c1

>  <Measurement Unit>
%

>  <growth>
-48.6

$$$$
>  <Molecule>
CCC(CCCN1C(=O)c2ccccc2C1=O)Nc1cc(OC)cc2c(C)ccnc12 (stereo not given)

>  <Measurement Unit>
%

>  <growth>
91.8

$$$$
>  <Molecule>
Clc1ccc(N/N=C/c2ccccn2)nc1

>  <Measurement Unit>
%

>  <growth>
37.5

$$$$
>  <Molecule>
c1ccc(Nc2ncc3c(n2)-c2cccn2CC3)cc1

>  <Measurement Unit>
%

>  <growth>
85.8

$$$$
>  <Molecule>
CCCCn1c(Cc2ccc(OC)cc2)nc2cc(OC)c(OC)cc2c1=O

>  <Measurement Unit>
%

>  <growth>
87

$$$$
>  <Molecule>
COc1cc(-c2nc3c(c(C)nc4c3nnn4-c3ccccc3)c(=O)o2)cc(OC)c1OC

>  <Measurement Unit>
%

>  <growth>
103

$$$$
>  <Molecule>
CSC1=Nc2c(c(C)c(-c3ccccc3)n2CCCCl)C2=NC(=O)CN12

>  <Measurement Unit>
%

>  <growth>
55.8

$$$$
>  <Molecule>
CCOC(=O)C1=NN(c2ccccc2)C2=NC(=O)/C(=C\c3cn(-c4ccccc4)nc3-c3cc4ccccc4o3)C(=O)N12

>  <Measurement Unit>
%

>  <growth>
89.5

$$$$

Give the reported growth for this molecule. CC(=O)Nc1ccc(CC#N)cc1Br 92.9

Give the reported growth for this molecule. O=C(/C=C1\C(=O)N(Cc2ccccc2)c2ccccc21)c1ccc(OCCN2CCCCC2)cc1 -44.5

----------
System: DU-145 prostate
Experiment: NCI-60 one-dose screen, 48 h
Conditions: 10 µM unless noted
This is part of a sample that, as a whole, favours compounds with a hit. Of some 83,000 tested, about 20% had one in any assay. Calls of active or inactive are those of the source. The calls were made as follows: active = growth percent below 10; inactive = the rest.
Field 'call' accepts label 1 (active), label 0 (inactive)

>  <Compound>
CCOC(=O)C1=C(C(F)(F)F)NC(=S)NC1CN1C(=O)c2ccccc2C1=O (centres undefined)

>  <Group Label>
label 0

$$$$
>  <Compound>
CCOC(=O)NC1=NCC(C)(C)S1

>  <Group Label>
label 0

$$$$
>  <Compound>
CC(O)c1cc[cH-]c1.[Fe+2].c1cc[cH-]c1 (centres undefined)

>  <Group Label>
label 0

$$$$
>  <Compound>
COC(=O)[C@H](Cc1cn(C)cn1)NC(=O)[C@H](CC(=O)OCc1ccccc1)NC(=O)Nc1cc(C(F)(F)F)cc(C(F)(F)F)c1

>  <Group Label>
label 1

$$$$
>  <Compound>
COC(=O)c1ccc2[nH]c(O)c(C(=Nc3ccc(N(C)C(=O)CN4CCN(C)CC4)cc3)c3ccc([N+](=O)[O-])cc3)c2c1

>  <Group Label>
label 0

$$$$
>  <Compound>
CCCC(=O)NNc1[nH]c(-c2cc(OC)c(OC)c(OC)c2)cc1C(=O)OCC

>  <Group Label>
label 0

$$$$
>  <Compound>
Cc1ccc(C(C)C)c(OCc2ccc(C(=O)N/N=C/c3cccc(O)c3O)cc2)c1

>  <Group Label>
label 0

$$$$
>  <Compound>
CC([C@H]1CC=C2C3CCC4=C[C@@H](N(C)C)CC[C@]4(C)C3CC[C@@]21C)N(C)C (some centres undefined)

>  <Group Label>
label 0

$$$$
>  <Compound>
CC(=O)OCC(=O)[C@@]1(O)[C@H](C)C[C@H]2[C@@H]3C=C(C)C4=Cc5c(cnn5-c5ccc(F)cc5)C[C@]4(C)[C@H]3[C@@H](O)C[C@@]21C

>  <Group Label>
label 0

$$$$
>  <Compound>
C[C@]12C=CC(=O)C=C1[C@@H](F)C[C@@H]1[C@@H]2[C@@H](O)C[C@@]2(C)[C@H]1CC[C@]2(O)C(=O)CO

>  <Group Label>
label 0

$$$$

Tell me the assay call for Cc1nnc(/N=C2\NC(=O)/C(=C/C=C/c3ccccc3)S2)s1 please. label 0

Tell me the assay call for CCCCCCN(CCCCCC)CCC(=O)Nc1ccc(S(=O)(=O)c2ccc(NC(=O)CCN(CCCCCC)CCCCCC)cc2)cc1 please. label 0
